Below is a list of entries, each paired with its recorded Test B disease control rating value.
Tested on: Puccinia recondite f sp. tritici
Test: Test B: wheat leaf rust, test suspension sprayed on wheat seedlings, disease rating;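 also: 200 ppm unless marked * meaning 40 ppm or ** meaning 10 ppm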
Type: in vivo
Conditions: 200 ppm test suspension
Unit % implied. Number only.

Example entries and their recorded answers appear below.
molecule=CC(C)CNc1nccc(-c2c(-c3ccccc3F)nn3c2CCC3)n1 recorded_metric="Test B disease control rating" unit_string=% measurement=74
molecule="CC(CO)Nc1nccc(-c2c(-c3ccccc3)nn3c2COCC3)n1 (stereo not drawn)" recorded_metric="Test B disease control rating" unit_string=% measurement=96
molecule=CCNc1nccc(-c2c(-c3ccccc3)nn3c2COCC3)n1 recorded_metric="Test B disease control rating" unit_string=% measurement=100

Request: Form field: reported Test B disease control rating of CC(COC(=O)CCC(=O)O)Nc1nccc(-c2c(-c3ccc(F)cc3)nn3c2CCCC3)n1 (stereo not drawn)
Response: 88

Request: Another molecule: CC(CO)Nc1nccc(-c2c(-c3ccsc3)nn3c2CCCC3)n1 (stereo not drawn)
Response: 85

Request: Another molecule: OC1(CNc2nccc(-c3c(-c4ccc(F)cc4)nn4c3CCCC4)n2)CC1
Response: 85

Request: Another molecule: CCC(C)c1ccc(Nc2nccc(-c3c(-c4ccc(F)cc4)nn4c3CCCC4)n2)cc1 (stereo not drawn)
Response: 97

Request: Another molecule: Fc1ccc(-c2nn3c(c2-c2ccnc(NC4CC4)n2)COCC3)c(F)c1
Response: 86

Request: Another molecule: CNc1nccc(-c2c(-c3ccccc3)nn3c2CCCC3)n1
Response: 100

Request: Another molecule: CC(=O)OCC(C)Nc1nccc(-c2c(-c3ccc(F)cc3)nn3c2CCCC3)n1 (stereo not drawn)
Response: 100

Request: Another molecule: CC(COC(=O)c1cccnc1)Nc1nccc(-c2c(-c3ccc(F)cc3)nn3c2CCCC3)n1 (stereo not drawn)
Response: 98

Request: Another molecule: Fc1ccc(-c2nn3c(c2-c2ccnc(NCc4cccs4)n2)CCCC3)cc1
Response: 67

---

System: Puccinia recondite f sp. tritici
Assay: Test B: wheat leaf rust, test suspension sprayed on wheat seedlings, disease rating;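 also: 200 ppm unless marked * meaning 40 ppm or ** meaning 10 ppm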
Type: in vivo
Conditions: 200 ppm test suspension
Below is a list of entries, each paired with its recorded Test B disease control rating value.
Unit % implied. Number only.

Example entries and their recorded answers appear below.
compound="CC(C)Nc1nccc(-c2c(-c3ccc(F)cc3)nn3c2CCCC3)n1.Cl [compound 69]" recorded_metric="Test B disease control rating" measurement=97
compound="CC(C)Nc1nccc(-c2c(-c3ccsc3)nn3c2COCC3)n1 [compound 118]" recorded_metric="Test B disease control rating" measurement=86
compound="CC(C)(C)CNc1nccc(-c2c(-c3ccc(F)cc3)nn3c2CCCC3)n1 [compound 3]" recorded_metric="Test B disease control rating" measurement=91

Request: Form field: reported Test B disease control rating of CC(CS(=O)(=O)[O-])Nc1nccc(-c2c(-c3ccc(F)cc3)nn3c2CCCC3)n1.[Na+] (stereo not drawn) [compound 64]
Response: 0

Request: Another compound: CCNc1nccc(-c2c(-c3ccccc3)nn3c2CCCC3)n1 [compound 143]
Response: 100

---

Test system: Puccinia recondite f sp. tritici
Experiment: Test B: wheat leaf rust, test suspension sprayed on wheat seedlings, disease rating;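 also: 200 ppm unless marked * meaning 40 ppm or ** meaning 10 ppm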
Format: in vivo
Conditions: 200 ppm test suspension
recorded_metric: Test B disease control rating (%)
Unit % implied. Number only.

Example entries and their recorded answers appear below.
compound="CC(C)Nc1nccc(-c2c(-c3ccc(F)cc3F)nn3c2COCC3)n1 [compound 125]" study_target="Puccinia recondite f sp. tritici" recorded_metric="Test B disease control rating" measurement=86
compound="C[C@H](CO)Nc1nccc(-c2c(-c3ccc(F)cc3)nn3c2CCOC3)n1 [compound 113]" study_target="Puccinia recondite f sp. tritici" recorded_metric="Test B disease control rating" measurement=97
compound="CC(C)Nc1nccc(-c2c(-c3ccccc3F)nn3c2CCC3)n1 [compound 97]" study_target="Puccinia recondite f sp. tritici" recorded_metric="Test B disease control rating" measurement=55
compound="CCCNc1nccc(-c2c(-c3cccc(C)c3)nn3c2CCCC3)n1 [compound 185]" study_target="Puccinia recondite f sp. tritici" recorded_metric="Test B disease control rating" measurement=97
compound="CC(CO)Nc1nccc(-c2c(-c3ccccc3F)nn3c2CCCC3)n1 (stereo not drawn) [compound 38]" study_target="Puccinia recondite f sp. tritici" recorded_metric="Test B disease control rating" measurement=94
compound="CONc1nccc(-c2c(-c3ccc(F)cc3)nn3c2CCCC3)n1 [compound 65]" study_target="Puccinia recondite f sp. tritici" recorded_metric="Test B disease control rating" measurement=65

Request: Form field: reported Test B disease control rating of Fc1ccc(Nc2nccc(-c3c(-c4ccc(F)cc4)nn4c3CCCC4)n2)cc1 [compound 40]
Response: 85

Request: Another compound: CCCNc1nccc(-c2c(-c3ccccc3)nn3c2CCCC3)n1 [compound 179]
Response: 100

Request: Another compound: Cc1ccccc1-c1nn2c(c1-c1ccnc(NC(C)CO)n1)CCCC2 (stereo not drawn) [compound 46]
Response: 74

Request: Another compound: CC(C)Nc1nccc(-c2c(-c3cccc(F)c3)nn3c2CCC3)n1 [compound 102]
Response: 92

Request: Another compound: Fc1ccc(-c2nn3c(c2-c2ccnc(NCC4CCCO4)n2)CCCC3)cc1 (stereo not drawn) [compound 34]
Response: 100

Request: Another compound: Fc1ccc(-c2nn3c(c2-c2ccnc(Nc4ccc(OC(F)(F)F)cc4)n2)CCCC3)cc1 [compound 60]
Response: 74

---

System: Phytophthora infestans
Experiment: whole plant or invertebrate
Type: in vivo
Details: 200 ppm test suspension
Please assign 0 (no) whenever Test J disease control rating is at or above 70%, and 1 (yes) whenever it is below.

Request: Determine if CC(C)Nc1nccc(-c2c(-c3ccccc3F)nn3c2CCCC3)n1 [compound 36] shows Test J disease control rating strictly lower than 70%.
Response: 0 (no)

Request: Another compound: CCC(C)Nc1nccc(-c2c(-c3ccc(F)cc3F)nn3c2CCC3)n1 (stereo not drawn) [compound 87]
Response: 0 (no)

Request: Another compound: Cc1cc(-c2nn3c(c2-c2ccnc(NC(C)C)n2)COCC3)ccc1F [compound 120]
Response: 0 (no)

---

Tested on: Phytophthora infestans
Assay: whole plant or invertebrate
Assay type: in vivo
Conditions: Phytophthora infestans, in Solanum lycopersicum, 120 h, read-out: Test J disease control rating
recorded_metric: pest or weed control at 200 ppm (%)
Unit % implied. Number only.

compound_string=Fc1ccc(-c2nn3c(c2-c2ccnc(NCC4CC4)n2)CCCC3)cc1 study_target="Phytophthora infestans" recorded_metric="pest or weed control at 200 ppm" unit_string=% measurement=72
compound_string=Fc1ccc(-c2nn3c(c2-c2ccnc(NC4CC4)n2)CCCC3)cc1 study_target="Phytophthora infestans" recorded_metric="pest or weed control at 200 ppm" unit_string=% measurement=100

Please turn your attention to the following entry.
Request: Form field: reported pest or weed control at 200 ppm of CC(=O)Nc1nccc(-c2c(-c3ccc(F)cc3)nn3c2CCCC3)n1
Response: 95

---

System: Puccinia recondite f sp. tritici
Test: Test B: wheat leaf rust, test suspension sprayed on wheat seedlings, disease rating;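 also: 200 ppm unless marked * meaning 40 ppm or ** meaning 10 ppm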
Type: in vivo
Details: 200 ppm test suspension
recorded_metric: Test B disease control rating (%)
Unit % implied. Number only.

Example entries and their recorded answers appear below.
molecule="CCC(C)Nc1nccc(-c2c(-c3ccc(F)cc3)nn3c2CCCC3)n1 (stereo not drawn) [compound 19]" recorded_metric="Test B disease control rating" unit_string=% measurement=99
molecule="CCC(C)Nc1nccc(-c2c(-c3cccc(F)c3)nn3c2CCC3)n1 (stereo not drawn)" recorded_metric="Test B disease control rating" unit_string=% measurement=89
molecule=Fc1cccc(-c2nn3c(c2-c2ccnc(NC4CC4)n2)CCC3)c1 recorded_metric="Test B disease control rating" unit_string=% measurement=95
molecule=COc1nccc(-c2c(-c3ccc(F)cc3)nn3c2CCCC3)n1 recorded_metric="Test B disease control rating" unit_string=% measurement=94
molecule="CCCC(C)Nc1nccc(-c2c(-c3ccc(F)cc3)nn3c2CCCC3)n1 (stereo not drawn)" recorded_metric="Test B disease control rating" unit_string=% measurement=92
molecule="CC(CO)Nc1nccc(-c2c(-c3ccsc3)nn3c2COCC3)n1 (stereo not drawn)" recorded_metric="Test B disease control rating" unit_string=% measurement=86
molecule=Fc1ccccc1-c1nn2c(c1-c1ccnc(NC3CC3)n1)CCC2 recorded_metric="Test B disease control rating" unit_string=% measurement=94
molecule="COCC(C)Nc1nccc(-c2c(-c3ccc(F)cc3)nn3c2CCC3)n1 (stereo not drawn)" recorded_metric="Test B disease control rating" unit_string=% measurement=99

Please turn your attention to the following entry.
Request: Recall the recorded Test B disease control rating for CC(CO)Nc1nccc(-c2c(-c3ccc(F)cc3F)nn3c2COCC3)n1 (stereo not drawn) with Puccinia recondite f sp. tritici and state it.
Response: 97

---

Below is a list of entries, each paired with its recorded melting point value.

molecule=Fc1ccc(-c2nn3c(c2-c2ccnc(NC4CC4)n2)CCCN3)cc1 measurement="184 to 187 °C"
molecule=CC(C)Nc1nccc(-c2c(-c3ccccc3)nn3c2COCC3)n1 measurement="185 to 187 °C"
molecule="CC(CO)Nc1nccc(-c2c(-c3ccc(F)cc3)nn3c2COCC3)n1 (stereo not drawn)" measurement="124 to 126 °C"
molecule=c1ccc(-c2nn3c(c2-c2ccnc(NC4CC4)n2)COCC3)cc1 measurement="186 to 189 °C"

Request: Form field: reported melting point of CC(CO)Nc1nccc(-c2c(-c3ccc(F)cc3)nn3c2CCCN3)n1 (stereo not drawn)
Response: 165 to 167 °C

Request: Another molecule: COC(=O)N1CCn2nc(-c3ccc(F)cc3)c(-c3ccnc(NC(C)C)n3)c2C1
Response: 88 to 89 °C
